Data origin, for the record: patent US11702429B2

IC50: recorded values
Target: mTORC1 (Homo sapiens, UniProt P42345+P62942)
Construct: endogenous in cells; host or cells: PC3 cells (human prostate adenocarcinoma)
Assay: Inhibition assay for mTORC1: phosphorylation of pS6K at Thr389, AlphaLISA in PC3 cells
Format: cell-based
Settings: read-out: pIC50 mTORC1 (converted)
Procedure: The IC50s of the inhibition of mTORC1 and mTORC2 were determined in vitro by determining the phosphorylation of pS6K at position Thr389 (mTORC1 inhibition) and pAkt at Ser473 (mTORC2 inhibition). In vitro studies were performed with AlphaLISA® technology using PC3 cells (Prostate Adenocarcinoma; Human (Homo sapiens)). The cells were seeded in 96 well plates and were treated for 24 hours with the different compounds. […]

{"molecule": "COC1C[C@@H]2CC[C@@H](C)[C@@](O)(O2)C(=O)C(=O)N2CCCCC2C(=O)O[C@H]([C@H](C)C[C@@H]2CC[C@@H](OC(=O)NCCO)[C@H](OC)C2)CC(=O)[C@H](C)/C=C(\\C)[C@@H](O)[C@@H](OC)C(=O)[C@H](C)C[C@H](C)/C=C/C=C/C=C/1C (some centres unmarked) [Compound 362]", "IC50": "< 316 pM"}
{"molecule": "COC1CC2CCC(C)C(O)(O2)C(=O)C(=O)N2CCCCC2C(=O)OC(C(C)CC2CCC(OCCc3ccccc3)C(OC)C2)CC(=O)C(C)C=C(C)C(O)C(OC)C(=O)C(C)CC(C)C=CC=CC=C1C (centres unmarked) [Compound 348]", "IC50": "< 316 pM"}
{"molecule": "CO[C@@H]1C[C@H](C[C@@H](C)[C@@H]2CC(=O)[C@H](C)/C=C(\\C)[C@@H](O)[C@@H](OC)C(=O)[C@H](C)C[C@H](C)/C=C/C=C/C=C(\\C)C(OCCO)C[C@@H]3CC[C@@H](C)[C@@](O)(O3)C(=O)C(=O)N3CCCCC3C(=O)O2)CC[C@H]1O (some centres unmarked) [Compound 219]", "IC50": "316 to 3160 pM"}
{"molecule": "COCCO[C@@H]1CC[C@@H](C[C@@H](C)[C@@H]2CC(=O)[C@H](C)/C=C(\\C)[C@@H](O)[C@@H](OC)C(=O)[C@H](C)C[C@H](C)/C=C/C=C/C=C(\\C)C(OC)C[C@@H]3CC[C@@H](C)[C@@](O)(O3)C(=O)C(=O)N3CCCCC3C(=O)O2)C[C@H]1OC (some centres unmarked) [Compound 315]", "IC50": "< 316 pM"}

Lab note: measured IC50 of COC1C[C@@H]2CC[C@@H](C)[C@@](O)(O2)C(=O)C(=O)N2CCCCC2C(=O)O[C@H]([C@H](C)C[C@@H]2CC[C@@H](OCCN3CCOCC3)[C@H](OC)C2)CC(=O)[C@H](C)/C=C(\C)[C@@H](O)[C@@H](OC)C(=O)[C@H](C)C[C@H](C)/C=C/C=C/C=C/1C (some centres unmarked) [Compound 325] was < 316 pM

Lab note: measured IC50 of COC1C[C@@H]2CC[C@@H](C)[C@@](O)(O2)C(=O)C(=O)N2CCCCC2C(=O)O[C@H]([C@H](C)C[C@@H]2CC[C@@H](OC(=O)NCCOCCOCCOCCOCCO)[C@H](OC)C2)CC(=O)[C@H](C)/C=C(\C)[C@@H](O)[C@@H](OC)C(=O)[C@H](C)C[C@H](C)/C=C/C=C/C=C/1C (some centres unmarked) [Compound 347] was < 316 pM

Lab note: measured IC50 of COC1C[C@@H]2CC[C@@H](C)[C@@](O)(O2)C(=O)C(=O)N2CCCCC2C(=O)O[C@H]([C@H](C)C[C@@H]2CC[C@@H](OC(=O)N(C)CCN3CCCCC3)[C@H](OC)C2)CC(=O)[C@H](C)/C=C(\C)[C@@H](O)[C@@H](OC)C(=O)[C@H](C)C[C@H](C)/C=C/C=C/C=C/1C (some centres unmarked) [Compound 318] was < 316 pM

Lab note: measured IC50 of COC1C[C@@H]2CC[C@@H](C)[C@@](O)(O2)C(=O)C(=O)N2CCCCC2C(=O)O[C@H]([C@H](C)C[C@@H]2CC[C@@H](OC(=O)NCCN3CCOCC3)[C@H](OC)C2)CC(=O)[C@H](C)/C=C(\C)[C@@H](O)[C@@H](OC)C(=O)[C@H](C)C[C@H](C)/C=C/C=C/C=C/1C (some centres unmarked) [Compound 336] was < 316 pM

Lab note: measured IC50 of COC1C[C@@H]2CC[C@@H](C)[C@@](O)(O2)C(=O)C(=O)N2CCCCC2C(=O)O[C@H]([C@H](C)C[C@@H]2CC[C@@H](OC(=O)NCCc3ccccc3)[C@H](OC)C2)CC(=O)[C@H](C)/C=C(\C)[C@@H](O)[C@@H](OC)C(=O)[C@H](C)C[C@H](C)/C=C/C=C/C=C/1C (some centres unmarked) [Compound 324] was < 316 pM

Lab note: measured IC50 of COC1C[C@@H]2CC[C@@H](C)[C@@](O)(O2)C(=O)C(=O)N2CCCCC2C(=O)O[C@H]([C@H](C)C[C@@H]2CC[C@@H](OCCCOCCO)[C@H](OC)C2)CC(=O)[C@H](C)/C=C(\C)[C@@H](O)[C@@H](OC)C(=O)[C@H](C)C[C@H](C)/C=C/C=C/C=C/1C (some centres unmarked) [Compound 319] was < 316 pM

Lab note: measured IC50 of COC1CC2CCC(C)C(O)(O2)C(=O)C(=O)N2CCCCC2C(=O)OC(C(C)CC2CCC(OCCCN3CCOC(C)C3)C(OC)C2)CC(=O)C(C)C=C(C)C(O)C(OC)C(=O)C(C)CC(C)C=CC=CC=C1C (centres unmarked) [Compound 310] was < 316 pM

Lab note: measured IC50 of CO[C@@H]1C[C@H](C[C@@H](C)[C@@H]2CC(=O)[C@H](C)/C=C(\C)[C@@H](O)[C@@H](OC)C(=O)[C@H](C)C[C@H](C)/C=C/C=C/C=C(\C)C(OC[C@@H](O)c3ccccc3)C[C@@H]3CC[C@@H](C)[C@@](O)(O3)C(=O)C(=O)N3CCCCC3C(=O)O2)CC[C@H]1O (some centres unmarked) [Compound 217] was < 316 pM

Lab note: measured IC50 of COCCCO[C@@H]1CC[C@@H](C[C@@H](C)[C@@H]2CC(=O)[C@H](C)/C=C(\C)[C@@H](O)[C@@H](OC)C(=O)[C@H](C)C[C@H](C)/C=C/C=C/C=C(\C)C(OC)C[C@@H]3CC[C@@H](C)[C@@](O)(O3)C(=O)C(=O)N3CCCCC3C(=O)O2)C[C@H]1OC (some centres unmarked) [Compound 308] was < 316 pM

Lab note: measured IC50 of CO[C@@H]1C[C@H](C[C@@H](C)[C@@H]2CC(=O)[C@H](C)/C=C(\C)[C@@H](O)[C@@H](OC)C(=O)[C@H](C)C[C@H](C)/C=C/C=C/C=C(\C)C(O[C@H](CO)c3ccccc3)C[C@@H]3CC[C@@H](C)[C@@](O)(O3)C(=O)C(=O)N3CCCCC3C(=O)O2)CC[C@H]1O (some centres unmarked) [Compound 204] was < 316 pM
